// provenance: the RNAGym collection of RNA variant scans (doi:10.7554/elife.80360)

B1: CPEB3 Ribozyme (parent)
chain: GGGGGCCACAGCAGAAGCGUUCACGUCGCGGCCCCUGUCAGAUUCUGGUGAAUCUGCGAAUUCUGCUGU

Variants of: B1
Test: self-cleavage, relative activity (ratio to wild type); higher = more cleavage; co-transcriptional
Think of 0.2 as a floor: if self-cleavage stands on it or above, it is TRUE; beneath it, FALSE.

Take a look at these entries with their results.
>  <Var>
G30U U67C

>  <Class Name>
TRUE

$$$$
>  <Var>
G1U C7U

>  <Class Name>
FALSE

$$$$
>  <Var>
A10U A16G

>  <Class Name>
TRUE

$$$$
>  <Var>
A10G C29U

>  <Class Name>
FALSE

$$$$
>  <Var>
G25U C66A

>  <Class Name>
FALSE

$$$$

self-cleavage >= 0.2 for G1C G65C ? FALSE

# iterate: A8G G58U TRUE

Cool, now U61A U64C TRUE

And what about the variant C33G C35U ? FALSE
